Exercise: for every item that follows, state its recorded pIC50.
- System: HCT-116 cell line
- PROTOCOL TEXT: Inhibition of cell growth, tetrazolium salt (MTT) assay
- Format: cell-based
- EXPERIMENTAL SETUP: Homo sapiens, HCT-116, 120 h, first HCT-116 column (c4); MTT, three to five days; read-out: HCT-116 IC50
Where a name gives a salt, the structure may show the parent alone.
In plain terms, pIC50 is the concentration in mol/L turned into minus its base-10 logarithm.

Query block: Look up pIC50 with HCT-116 cell line for this molecule: N#Cc1ccc(S(=O)(=O)N2CCC(Nc3nc(N)c(C(=O)c4c(F)cccc4F)s3)CC2)cc1 [Example F18]
Result block: 6.52

Query block: Could you share what pIC50 was measured for CCN1CCN(CCCS(=O)(=O)N2CCC(Nc3nc(N)c(C(=O)c4c(F)cccc4F)s3)CC2)CC1 [Example K15] , tested on HCT-116 cell line?
Result block: 5.89

Query block: Checklist item: pIC50 tested on HCT-116 cell line, entry CN(C)CCN(C)c1ccc(S(=O)(=O)N2CCC(Nc3nc(N)c(C(=O)c4c(F)cccc4F)s3)CC2)cn1 [Example G1, Trifluoroacetic Acid Salt] , value?
Result block: 6.92

Query block: Lab note: need pIC50 for COc1cc(C(=O)N2CCC(Nc3nc(N)c(C(=O)c4c(F)cccc4F)s3)CC2)ccc1C [Example D12, Trifluoroacetic Acid Salt] on HCT-116 cell line, anyone have it?
Result block: 6.92

Query block: Can you look up pIC50 on HCT-116 cell line for C[C@@H]1CN(c2ccc(S(=O)(=O)N3CCC(Nc4nc(N)c(C(=O)c5c(F)cccc5F)s4)CC3)cc2)C[C@H](C)N1 [Example G29] ?
Result block: 7.35

Query block: // map Nc1nc(NC2CCN(C(=O)c3cccc([N+](=O)[O-])c3)CC2)sc1C(=O)c1c(F)cccc1F [Example C12] to recorded pIC50 (system: HCT-116 cell line)
Result block: 6.66

###

- MEASURED ON: human CDK4 and genetically truncated (1-264) cyclin D3 (Homo sapiens, UniProt P11802)
- Sequence (P11802 whole entry, the tested form may be a part): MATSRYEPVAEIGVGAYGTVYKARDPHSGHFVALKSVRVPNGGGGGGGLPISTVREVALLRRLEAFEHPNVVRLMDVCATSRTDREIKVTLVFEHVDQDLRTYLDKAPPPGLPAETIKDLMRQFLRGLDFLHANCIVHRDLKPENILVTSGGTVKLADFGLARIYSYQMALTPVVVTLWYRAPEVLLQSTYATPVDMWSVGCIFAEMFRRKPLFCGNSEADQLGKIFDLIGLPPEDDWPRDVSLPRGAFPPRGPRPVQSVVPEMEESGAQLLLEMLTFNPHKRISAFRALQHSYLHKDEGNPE
- Sequence (P30281 1-264 partner): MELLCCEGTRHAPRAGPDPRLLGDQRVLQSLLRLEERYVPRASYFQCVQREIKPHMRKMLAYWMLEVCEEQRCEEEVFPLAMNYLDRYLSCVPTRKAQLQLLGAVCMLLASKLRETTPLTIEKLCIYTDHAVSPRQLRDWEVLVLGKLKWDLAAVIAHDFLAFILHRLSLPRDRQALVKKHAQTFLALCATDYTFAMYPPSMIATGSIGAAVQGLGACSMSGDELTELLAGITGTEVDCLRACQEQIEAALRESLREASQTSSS
- PROTOCOL TEXT: Inhibition of CDK4/Cyclin D Retinoblastoma Kinase Activity
- EXPERIMENTAL SETUP: apparent Ki, CDK4/truncated cyclin D3, Rb fragment substrate, 25 μM ATP
Give Ki for every item shown.
Note: a bare number is incomplete; add the unit.

Query block: Consider the compound CN1CC[C@@H](c2ccc(S(=O)(=O)N3CCC(Nc4nc(N)c(C(=O)c5c(F)cccc5F)s4)CC3)cc2)C1 and give its measured Ki.
Result block: 0.61 nM

Query block: Sample Nc1nc(NC2CCN(S(=O)(=O)CCNCc3cccc(F)c3F)CC2)sc1C(=O)c1c(F)cccc1F — what was its Ki?
Result block: 1 nM

Query block: Look up Ki for this compound: Nc1nc(NC2CCN(C(=O)n3ccnc3)CC2)sc1C(=O)c1c(F)cccc1F
Result block: 21 nM

Query block: I'd like to know its Ki. The compound in question is Cc1noc(C)c1S(=O)(=O)N1CCC(Nc2nc(N)c(C(=O)c3c(F)cccc3F)s2)CC1
Result block: 14 nM

###

- MEASURED ON: CDK2/Cyclin A (Homo sapiens)
- PROTOCOL TEXT: Inhibition of CDK2/Cyclin A Retinoblastoma Kinase Activity
- Format: biochemical
- EXPERIMENTAL SETUP: 0.03 μM compound; Table 4
MEASURED ATTRIBUTE: CDK2 % Inhibition at 0.03 μM (%)
Give your result in % as a bare value.

Query block: Give its CDK2 % Inhibition at 0.03 μM value. Item: Nc1nc(NC2CCN(C(=S)Oc3ccccc3)CC2)sc1C(=O)c1c(F)cccc1F [Example Q83]
Result block: 72

Query block: Requested read-out: CDK2 % Inhibition at 0.03 μM. Entry: Nc1nc(NC2CCN(C(=O)c3cccc(Br)c3)CC2)sc1C(=O)c1c(F)cccc1F [Example Q18]
Result block: 44

Query block: For CCCCCc1ccc(C(=O)N2CCC(Nc3nc(N)c(C(=O)c4c(F)cccc4F)s3)CC2)cc1 [Example Q37] , what is its reported CDK2 % Inhibition at 0.03 μM?
Result block: 12

Query block: What does the data say about its CDK2 % Inhibition at 0.03 μM? Entry: Nc1nc(NC2CCN(C(=O)Oc3ccc(Cl)cc3)CC2)sc1C(=O)c1c(F)cccc1F [Example Q5]
Result block: 45

Query block: Fill in: CDK2 % Inhibition at 0.03 μM of CCOC(=O)N1CCC(Nc2nc(N)c(C(=O)c3c(F)cccc3F)s2)CC1 [Example Q8] is ___
Result block: −13

Query block: Please look up its CDK2 % Inhibition at 0.03 μM: CCCCC(CC)COC(=O)N1CCC(Nc2nc(N)c(C(=O)c3c(F)cccc3F)s2)CC1 (centres unmarked) [Example Q7]
Result block: −42

Query block: # CDK2 % Inhibition at 0.03 μM lookup, item CCOC(=O)CC(=O)N1CCC(Nc2nc(N)c(C(=O)c3c(F)cccc3F)s2)CC1 [Example Q47]
Result block: −13

Query block: Fill in: CDK2 % Inhibition at 0.03 μM of Nc1nc(NC2CCN(C(=O)c3ccncc3)CC2)sc1C(=O)c1c(F)cccc1F [Example Q81] is ___
Result block: 6

Query block: Item under review: N#Cc1cccc(C(=O)N2CCC(Nc3nc(N)c(C(=O)c4c(F)cccc4F)s3)CC2)c1 [Example Q77] . Reported CDK2 % Inhibition at 0.03 μM?
Result block: 44

Query block: State the recorded CDK2 % Inhibition at 0.03 μM for this entry: Nc1nc(NC2CCN(C(=O)c3ccccc3Cl)CC2)sc1C(=O)c1c(F)cccc1F [Example Q13]
Result block: 13

Query block: Please give the measured CDK2 % Inhibition at 0.03 μM for this compound: Nc1nc(NC2CCN(C(=O)C3CCCCC3)CC2)sc1C(=O)c1c(F)cccc1F [Example Q59]
Result block: 10

Query block: So what's the measured CDK2 % Inhibition at 0.03 μM for this one? COc1ccccc1C(=O)N1CCC(Nc2nc(N)c(C(=O)c3c(F)cccc3F)s2)CC1 [Example Q15]
Result block: 25

Query block: Any idea what CDK2 % Inhibition at 0.03 μM was measured for Nc1nc(NC2CCN(C(=O)COc3ccccc3)CC2)sc1C(=O)c1c(F)cccc1F [Example Q41] ?
Result block: 24

Query block: Reported CDK2 % Inhibition at 0.03 μM for COC(=O)C(=O)N1CCC(Nc2nc(N)c(C(=O)c3c(F)cccc3F)s2)CC1 [Example Q38] : what is it?
Result block: −12

Query block: Reported CDK2 % Inhibition at 0.03 μM for Nc1nc(NC2CCN(C(=O)c3cccc4c3-c3ccccc3C4=O)CC2)sc1C(=O)c1c(F)cccc1F [Example Q74] : what is it?
Result block: 2

Query block: Tell me the measured CDK2 % Inhibition at 0.03 μM of Nc1nc(NC2CCN(C(=O)c3ccc4ccccc4c3)CC2)sc1C(=O)c1c(F)cccc1F [Example Q63] , please.
Result block: 39

Query block: Entry under review: CCN(CC)C(=O)N1CCC(Nc2nc(N)c(C(=O)c3c(F)cccc3F)s2)CC1 [Example Q3] . Reported CDK2 % Inhibition at 0.03 μM?
Result block: −43

###

- MEASURED ON: CDK2/Cyclin A (Homo sapiens, UniProt P24941)
- PROTOCOL TEXT: Inhibition of CDK2/Cyclin A Retinoblastoma Kinase Activity
- Type: biochemical
- EXPERIMENTAL SETUP: read-out: % inhibition of CDK2 (@ 0.05 μM), compound at 0.05 μM
MEASURED ATTRIBUTE: inhibition at 0.05 µM (%)
Kindly answer with a numeric value in %, unit omitted.

Query block: Data request, read-out inhibition at 0.05 µM, for Nc1nc(NC2CCN(S(=O)(=O)CCCNCC3COCCO3)CC2)sc1C(=O)c1c(F)cccc1F (stereo not drawn)
Result block: 83

Query block: Return reported inhibition at 0.05 µM; argument: NC(=O)CNCCCS(=O)(=O)N1CCC(Nc2nc(N)c(C(=O)c3c(F)cccc3F)s2)CC1
Result block: 78

Query block: Would you kindly share the measured inhibition at 0.05 µM for Nc1nc(NC2CCN(S(=O)(=O)CCCNC3CCC3)CC2)sc1C(=O)c1c(F)cccc1F ?
Result block: 78

Query block: Could you tell me which inhibition at 0.05 µM is on file for Nc1nc(NC2CCN(S(=O)(=O)CCCN3CCSC3)CC2)sc1C(=O)c1c(F)cccc1F ?
Result block: 80

Query block: Given CC1CCN(CCCS(=O)(=O)N2CCC(Nc3nc(N)c(C(=O)c4c(F)cccc4F)s3)CC2)CC1 , state its recorded inhibition at 0.05 µM.
Result block: 80

Query block: I'd like to know its inhibition at 0.05 µM. The compound in question is Nc1nc(NC2CCN(S(=O)(=O)CCCNCCSCCO)CC2)sc1C(=O)c1c(F)cccc1F
Result block: 87

Query block: For the compound Nc1nc(NC2CCN(S(=O)(=O)CCCN[C@H]3CC[C@@H](CO)CC3)CC2)sc1C(=O)c1c(F)cccc1F , what inhibition at 0.05 µM is on record?
Result block: 82

Query block: What does the data say about its inhibition at 0.05 µM? Entry: CN(CCO)CCCS(=O)(=O)N1CCC(Nc2nc(N)c(C(=O)c3c(F)cccc3F)s2)CC1
Result block: 83

Query block: Query (compound): Nc1nc(NC2CCN(S(=O)(=O)CCCN3CCN4CCCC4C3)CC2)sc1C(=O)c1c(F)cccc1F (stereo not drawn) ; field requested: inhibition at 0.05 µM
Result block: 78

Query block: Find the recorded inhibition at 0.05 µM belonging to CCOCCNCCCS(=O)(=O)N1CCC(Nc2nc(N)c(C(=O)c3c(F)cccc3F)s2)CC1 and report it.
Result block: 81

Query block: inhibition at 0.05 µM lookup needed for Nc1nc(NC2CCN(S(=O)(=O)CCCNCCN3CCOCC3)CC2)sc1C(=O)c1c(F)cccc1F , thanks.
Result block: 69

Query block: Need inhibition at 0.05 µM, item Nc1nc(NC2CCN(S(=O)(=O)CCCNCCc3ccncc3)CC2)sc1C(=O)c1c(F)cccc1F
Result block: 87

Query block: Given Nc1nc(NC2CCN(S(=O)(=O)CCCN3CCCC(CO)C3)CC2)sc1C(=O)c1c(F)cccc1F (stereo not drawn) , state its recorded inhibition at 0.05 µM.
Result block: 50

Query block: # get_value(readout='inhibition at 0.05 µM', item= Cc1nnc(CCNCCCS(=O)(=O)N2CCC(Nc3nc(N)c(C(=O)c4c(F)cccc4F)s3)CC2)o1 )
Result block: 78

Query block: Report inhibition at 0.05 µM for Nc1nc(NC2CCN(S(=O)(=O)CCCN[C@H]3CCC(=O)NC3)CC2)sc1C(=O)c1c(F)cccc1F please.
Result block: 83
